- Test system: NCI-H226 lung
- assay_overview: NCI tumour cell line growth inhibition, 48 h
Examples of compounds with documented TGI follow.

{"compound": "Nc1nc(Nc2cc(F)c(Cl)c(F)c2)cc(=O)[nH]1", "target_or_system": "NCI-H226 lung", "TGI": "> 100 µM"}
{"compound": "CCOC(=O)/C(=C/c1ccc[nH]1)P(=O)(OCC)OCC", "target_or_system": "NCI-H226 lung", "TGI": "> 100 µM"}
{"compound": "Clc1ccc(N=CNc2ccc(-c3nc4ccccc4[nH]3)cc2)cc1", "target_or_system": "NCI-H226 lung", "TGI": "> 100 µM"}
{"compound": "O=C(CCc1ccccc1)NCCc1ccc(O)c(O)c1", "target_or_system": "NCI-H226 lung", "TGI": "> 100 µM"}
{"compound": "COc1ccc(NC(=S)Nc2cccc(C)n2)cc1", "target_or_system": "NCI-H226 lung", "TGI": "> 100 µM"}
{"compound": "CCCCN1/C(=N/Nc2n[nH]c(=O)c3ccccc23)SCC1c1ccc(Cl)cc1 (stereo unspecified)", "target_or_system": "NCI-H226 lung", "TGI": "27.5 µM"}
{"compound": "O=C(NCc1ccc(Cl)c(Cl)c1)c1nc2ccccc2nc1NCc1ccc(Cl)c(Cl)c1", "target_or_system": "NCI-H226 lung", "TGI": "> 100 µM"}
{"compound": "O=C1COc2c(CCNCCN(C(=O)CCNCCc3ccc(Cl)c(Cl)c3)C3CCCCC3)ccc(O)c2N1", "target_or_system": "NCI-H226 lung", "TGI": "35.9 µM"}
{"compound": "O=C(NCc1cccnc1)c1ccc([N+](=O)[O-])o1", "target_or_system": "NCI-H226 lung", "TGI": "13.2 µM"}
{"compound": "O=C(/C=C/c1ccc(OCC(=O)N2CCN(c3ccccc3)CC2)cc1)c1ccccc1", "target_or_system": "NCI-H226 lung", "TGI": "> 60.4 µM"}
{"compound": "CCOC(=O)c1c(/C=N\\Nc2ccccc2)nc2ccccc2c1-c1ccccc1", "target_or_system": "NCI-H226 lung", "TGI": "> 100 µM"}

* * *

- System: PC-3 prostate
- assay_overview: NCI tumour cell line growth inhibition, 48 h; in the data active means GI50 below about 0.43 µM; inactive means the rest
Labels: active, inactive

{"molecule": "COc1cccc2c(Nc3ccc(C(=O)NCCN4CCNCC4)cc3)cc(-c3ccccc3)nc12", "target_or_system": "PC-3 prostate", "label_value": "inactive"}
{"molecule": "CC(=O)Nc1ccc(C(=O)COc2cccc(/C=C3\\CCc4ccccc4C3=O)c2)cc1", "target_or_system": "PC-3 prostate", "label_value": "inactive"}
{"molecule": "N#Cc1c(N/N=C/c2c(Cl)cccc2Cl)nc(N)nc1N1CCCC1", "target_or_system": "PC-3 prostate", "label_value": "inactive"}
{"molecule": "OCCn1c(-c2ccncc2)c(-c2ccc(F)cc2)c2ncccc21", "target_or_system": "PC-3 prostate", "label_value": "inactive"}
{"molecule": "O=C(/C=C/N1CCN(c2cccc(Cl)c2)CC1)c1ccc(Cl)cc1", "target_or_system": "PC-3 prostate", "label_value": "inactive"}
{"molecule": "Cn1c(=O)c(Oc2ccc(F)cc2F)cc2cnc(NC3CCC(O)CC3)nc21 (stereo not given)", "target_or_system": "PC-3 prostate", "label_value": "inactive"}
{"molecule": "Cc1cc(N(CCCl)CCCl)ccc1/C=N\\NC(=O)c1cccnc1", "target_or_system": "PC-3 prostate", "label_value": "inactive"}
{"molecule": "CCc1c[nH]c2ncnc(N3CC[C@](N)(CNC(=O)c4ccc(F)cc4F)C3)c12", "target_or_system": "PC-3 prostate", "label_value": "inactive"}
{"molecule": "COc1cc2c(cc1OCCCN1CCN(CCCn3c4ccccc4c4ccccc43)CC1)N=C[C@@H]1CCCN1C2=O", "target_or_system": "PC-3 prostate", "label_value": "active"}
{"molecule": "Cc1cc(C2(c3cc(C)c(O)c4ncccc34)OC(=O)c3ccccc32)c2cccnc2c1O", "target_or_system": "PC-3 prostate", "label_value": "active"}

* * *

- Test system: KM12 colon
- assay_overview: NCI tumour cell line growth inhibition, 48 h

{"compound": "Cc1ccc(C)c(C(=O)CC2OC(O)C(Cl)C2Cl)c1 (centres undefined)", "TGI": "> 100 µM"}
{"compound": "CC1=C2[C@@H](c3ccccc3)C3C=CC2(C=C3C(F)(F)F)N(C(=O)NC2CCCCC2)C1=O (some centres undefined)", "TGI": "> 100 µM"}
{"compound": "Clc1ccc(N=CNc2ccc(-c3nc4ccccc4[nH]3)cc2)cc1", "TGI": "18.5 µM"}
{"compound": "CCNC(=O)O/N=C1/C=C2CC[C@@H]3C(CC[C@@]4(C)C3CC[C@@H]4OC(=O)NCC)[C@@]2(C)CC1 (some centres undefined)", "TGI": "9.58 µM"}
{"compound": "O=[N+]([O-])C1(CO)COC(CCc2ccccc2)OC1 (centres undefined)", "TGI": "> 100 µM"}
{"compound": "Cc1cc(N(CCCl)CCCl)ccc1/C=N\\NC(=O)c1cccnc1", "TGI": "> 100 µM"}
{"compound": "Nc1cc(O)c2cc(N=Nc3ccc(N=Nc4ccc(N=Nc5ccc6cc(S(=O)(=O)O)cc(S(=O)(=O)O)c6c5)c5ccccc45)c4cc(S(=O)(=O)O)ccc34)c(S(=O)(=O)O)cc2c1", "TGI": "> 100 µM"}
{"compound": "O=C1Cc2c(-c3ccccc3)cc(-c3ccc(Cl)cc3)nc2-c2ccccc2N1", "TGI": "96.1 µM"}
{"compound": "Nc1ccc2ncc(Nc3ccc(Cl)c(Cl)c3)nc2c1", "TGI": "> 100 µM"}

* * *

- System: SF-539 CNS
- assay_overview: NCI tumour cell line growth inhibition, 48 h

{"molecule": "COc1cc(CC2C(=O)OCC2Cc2ccc(OC)c(OC)c2)ccc1O (stereo unspecified)", "target_or_system": "SF-539 CNS", "TGI": "> 100 µM"}
{"molecule": "CCOC(=O)N/N=C(/N)Cc1ccc(Cl)cc1", "target_or_system": "SF-539 CNS", "TGI": "> 100 µM"}
{"molecule": "O=C(NCc1cccnc1)c1ccc([N+](=O)[O-])o1", "target_or_system": "SF-539 CNS", "TGI": "3.76 µM"}
{"molecule": "O=C(Nc1ccccc1)Oc1ccccc1C1CCCCC1", "target_or_system": "SF-539 CNS", "TGI": "> 100 µM"}
{"molecule": "CCOC(=O)C1C(=O)C(=O)N2CCc3c([nH]c4ccccc34)C12 (stereo unspecified)", "target_or_system": "SF-539 CNS", "TGI": "> 100 µM"}
{"molecule": "CC1=CC(=O)N2[C@H](OC[C@@H]2C(C)C)O1", "target_or_system": "SF-539 CNS", "TGI": "> 100 µM"}
{"molecule": "Nc1nc2c(c(-c3ccc(F)cc3)n1)COC/C2=C\\c1ccc(F)cc1", "target_or_system": "SF-539 CNS", "TGI": "> 100 µM"}
{"molecule": "COC(=O)c1ccccc1NCc1cc(O)ccc1O", "target_or_system": "SF-539 CNS", "TGI": "34.9 µM"}
{"molecule": "NC(=O)NC(=O)C1CCC(=O)N1S(=O)(=O)c1ccc(Cl)cc1 (stereo unspecified)", "target_or_system": "SF-539 CNS", "TGI": "> 100 µM"}
{"molecule": "O=C(NCc1ccc(Cl)c(Cl)c1)c1nc2ccccc2nc1NCc1ccc(Cl)c(Cl)c1", "target_or_system": "SF-539 CNS", "TGI": "> 100 µM"}
{"molecule": "Cc1cc2c(=O)cc(-c3ccncc3)oc2c(C(=O)O)c1C", "target_or_system": "SF-539 CNS", "TGI": "> 100 µM"}

* * *

Measured TGI, listed per entry for reference.
- Test system: OVCAR-4 ovarian
- assay_overview: NCI tumour cell line growth inhibition, 48 h

{"compound": "CCCCC(C)(C/C=C/[C@@H]1[C@@H](C(O)CCCCCC(=O)OC)C(=O)C[C@H]1O[Si](C)(C)C(C)(C)C)O[Si](C)(C)C (some centres not stated)", "target_or_system": "OVCAR-4 ovarian", "TGI": "> 100 µM"}
{"compound": "O=C1c2sccc2C(=O)c2c(CO)csc21", "target_or_system": "OVCAR-4 ovarian", "TGI": "9.46 µM"}
{"compound": "CCNc1nc(-c2ccc(Cl)c(OC)c2)c(-c2ccnc(NCCNS(=O)(=O)c3ccc(Cl)cc3)n2)s1", "target_or_system": "OVCAR-4 ovarian", "TGI": "> 100 µM"}
{"compound": "CCOC(=O)Oc1ccc2[nH]c3c(C)cc(N)c(C)c3c2c1", "target_or_system": "OVCAR-4 ovarian", "TGI": "> 100 µM"}
{"compound": "OCCn1c(-c2ccncc2)c(-c2ccc(F)cc2)c2ncccc21", "target_or_system": "OVCAR-4 ovarian", "TGI": "> 25 µM"}
{"compound": "O=C(O)C12C3C4C1C1C2C3C41I (configuration not stated)", "target_or_system": "OVCAR-4 ovarian", "TGI": "> 100 µM"}
{"compound": "CC(=O)CC(=O)N1CCOC1=O", "target_or_system": "OVCAR-4 ovarian", "TGI": "> 10 µM"}
{"compound": "CN(C)C(=O)c1cc2cnc(Nc3ccc(N4CCNCC4)cn3)nc2n1C1CCCC1", "target_or_system": "OVCAR-4 ovarian", "TGI": "86.8 µM"}
{"compound": "O=C(CCc1ccccc1)NCCc1ccc(O)c(O)c1", "target_or_system": "OVCAR-4 ovarian", "TGI": "46.7 µM"}
{"compound": "CC(=O)OCC1OC(OC(C)=O)C(NC#N)C(OC(C)=O)C1OC(C)=O (configuration not stated)", "target_or_system": "OVCAR-4 ovarian", "TGI": "> 100 µM"}
{"compound": "O=C1CSC(c2cccc(Oc3ccccc3)c2)N1c1cc(Cl)ccc1Cl (configuration not stated)", "target_or_system": "OVCAR-4 ovarian", "TGI": "60.8 µM"}
{"compound": "COc1ccc(S(=O)(=O)NCCCNc2nccc(-c3c(-c4ccc(F)cc4)nc4sccn34)n2)cc1", "target_or_system": "OVCAR-4 ovarian", "TGI": "27.2 µM"}
{"compound": "CC1=CC(=O)N2[C@H](OC[C@@H]2C(C)C)O1", "target_or_system": "OVCAR-4 ovarian", "TGI": "> 100 µM"}
{"compound": "CC(=O)OC/C=C/Cn1nc(Br)c(=O)[nH]c1=O", "target_or_system": "OVCAR-4 ovarian", "TGI": "> 100 µM"}
{"compound": "Cn1ncc2c(c1=O)Nc1ccccc1S2(=O)=O", "target_or_system": "OVCAR-4 ovarian", "TGI": "> 100 µM"}
{"compound": "O=C1COc2c(CCNCCN(C(=O)CCNCCc3ccc(Cl)c(Cl)c3)C3CCCCC3)ccc(O)c2N1", "target_or_system": "OVCAR-4 ovarian", "TGI": "28.9 µM"}
{"compound": "CCCCSC1=N/C(=C\\c2ccccc2O)C(Cl)=N1", "target_or_system": "OVCAR-4 ovarian", "TGI": "> 100 µM"}
{"compound": "O=P1(C(O)c2ccccc2)N(Cc2ccccc2)[C@@H]2CCCC[C@H]2N1Cc1ccccc1 (some centres not stated)", "target_or_system": "OVCAR-4 ovarian", "TGI": "53.1 µM"}
{"compound": "O=[N+]([O-])C1(CO)COC(CCc2ccccc2)OC1 (configuration not stated)", "target_or_system": "OVCAR-4 ovarian", "TGI": "> 100 µM"}
{"compound": "CN1CCN(Cc2ccc(NC(=O)c3cncc(C#Cc4cnc5cccnn45)c3)cc2C(F)(F)F)CC1", "target_or_system": "OVCAR-4 ovarian", "TGI": "3.68 µM"}
{"compound": "NS(=O)(=O)c1cc2c(cc1Cl)NC(C(=O)NNC(=O)c1ccncc1)=NS2(=O)=O", "target_or_system": "OVCAR-4 ovarian", "TGI": "> 100 µM"}
{"compound": "CCCCCCCCCCCCCCCC(=O)OCC(COP(=O)(O)OCCNC(=O)CCSSc1ccccn1)OC(=O)CCCCCCCCCCCCCCC (configuration not stated)", "target_or_system": "OVCAR-4 ovarian", "TGI": "> 100 µM"}
{"compound": "Nc1cc(O)c2cc(N=Nc3ccc(N=Nc4ccc(N=Nc5ccc6cc(S(=O)(=O)O)cc(S(=O)(=O)O)c6c5)c5ccccc45)c4cc(S(=O)(=O)O)ccc34)c(S(=O)(=O)O)cc2c1", "target_or_system": "OVCAR-4 ovarian", "TGI": "> 100 µM"}
{"compound": "COc1cc(CC2C(=O)OCC2Cc2ccc(OC)c(OC)c2)ccc1O (configuration not stated)", "target_or_system": "OVCAR-4 ovarian", "TGI": "> 100 µM"}
{"compound": "Nc1nc(N)c(-c2ccccc2)c(C(=O)Nc2nccs2)n1", "target_or_system": "OVCAR-4 ovarian", "TGI": "> 100 µM"}
{"compound": "C(/Cc1ccc2c(c1)OCO2)=N\\NC1=NCCCCN1", "target_or_system": "OVCAR-4 ovarian", "TGI": "> 100 µM"}
{"compound": "O=C(C[N+]1(c2ccccc2)CCOCC1)c1ccccc1", "target_or_system": "OVCAR-4 ovarian", "TGI": "> 100 µM"}
{"compound": "COc1cccc2c(Nc3ccc(C(=O)NCCN4CCNCC4)cc3)cc(-c3ccccc3)nc12", "target_or_system": "OVCAR-4 ovarian", "TGI": "74.2 µM"}
{"compound": "Cc1c(Cl)cc(C(C)(C)C)c(O)c1Cc1c(C)c(Cl)cc(C(C)(C)C)c1O", "target_or_system": "OVCAR-4 ovarian", "TGI": "10.3 µM"}
{"compound": "CCOC(=O)C1(NC(=O)OC(C)(C)C)CCc2[nH]oc(=O)c2C1 (configuration not stated)", "target_or_system": "OVCAR-4 ovarian", "TGI": "> 100 µM"}
{"compound": "COc1ccc(-c2cc(-c3ccc(Nc4ccnc5cc(C(F)(F)F)ccc45)cc3)nc(N)c2C#N)c2ccccc12", "target_or_system": "OVCAR-4 ovarian", "TGI": "> 100 µM"}
{"compound": "COC(=O)c1ccccc1NCc1cc(O)ccc1O", "target_or_system": "OVCAR-4 ovarian", "TGI": "34.9 µM"}
